These entries and their values trace back to patent US20190247353A1.

Answer each item with its documented MIC.
test system: HL110PA3 strain (RT6); test: MIC by broth microdilution method, HL110PA3 strain; assay type: cell-based, Propionibacterium acnes; conditions: Cutibacterium acnes, 48 h; pH 6.0 modified GAM broth, anaerobic, 37° C., 2 days (Example 1); read-out: MIC against acne bacterium strain HL110PA3 strain (RT6)
Please give a number only; it is taken to be in mg/L.

Tell me reported MIC for CCCCCCC(=O)O [Heptanoic acid (C7:0), Heptanoic acid, reference compound] , tested with HL110PA3 strain (RT6).
125

Tell me reported MIC for CCCCCCCCC(=O)O [Nonanoic acid (C9:0), Nonanoic acid, reference compound] , tested with HL110PA3 strain (RT6).
250

Tell me reported MIC for CCCCCCCCCCCCCCC(=O)O , tested with HL110PA3 strain (RT6).
250

Tell me reported MIC for CCCCCCCCCCCC(=O)O [Lauric acid (C12:0), Lauric acid, reference compound] , tested with HL110PA3 strain (RT6).
15.6

---

tested on: HL053PA1 strain (RT4); test: MIC by broth microdilution method, HL053PA1 strain; assay type: cell-based, Propionibacterium acnes; conditions: Cutibacterium acnes, 48 h; pH 6.0 modified GAM broth, anaerobic, 37° C., 2 days (Example 1); read-out: MIC against acne bacterium strain HL053PA1 strain (RT4)
Readout type: log10 of MIC (log10 of the value in µg/mL)
Field: value | Transform: log10 | Quantity: MIC | Unit: µg/mL

May I ask what log10 of MIC has been recorded for CCCCCCCC/C=C\CCCCCCCC(=O)O ?
2.70

May I ask what log10 of MIC has been recorded for CCCCCCCC(=O)O [Caprylic acid (C8:0), Caprylic acid, reference compound] ?
2.40

May I ask what log10 of MIC has been recorded for CCCCCCCCCCCCCCC(=O)O ?
0.29

May I ask what log10 of MIC has been recorded for CCCCCCCCCCCCCCCC(=O)O ?
0.89

May I ask what log10 of MIC has been recorded for CCCCCCCCCCCCC(=O)O [Tridecanoic acid (C13:0), Tridecanoic acid, reference compound] ?
1.19

May I ask what log10 of MIC has been recorded for CCCCCCCCCCCC(=O)O [Lauric acid (C12:0), Lauric acid, reference compound] ?
1.19

May I ask what log10 of MIC has been recorded for CCCCCCCCCCC(=O)O [Undecanoic acid (C11:0), Undecanoic acid, reference compound] ?
1.19

May I ask what log10 of MIC has been recorded for CCCCCCCCCCCCCCCCC(=O)O ?
0.89

May I ask what log10 of MIC has been recorded for CCCCCCCCCCCCCC(=O)O ?
1.19

May I ask what log10 of MIC has been recorded for CCCCCC/C=C\CCCCCCCC(=O)O [Palmitoleic acid (C16:1), Palmitoleic acid, reference compound] ?
1.50

May I ask what log10 of MIC has been recorded for CCCCCCCCCC(=O)O [Capric acid (C10:0), Capric acid, reference compound] ?
2.70

May I ask what log10 of MIC has been recorded for CCCCCCC(=O)O [Heptanoic acid (C7:0), Heptanoic acid, reference compound] ?
2.10

May I ask what log10 of MIC has been recorded for CCCCCCCCC(=O)O [Nonanoic acid (C9:0), Nonanoic acid, reference compound] ?
2.70
